// protein stability index lookup, one value per entry
B1: KRT15 (parent)
chain: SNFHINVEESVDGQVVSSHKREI

variants of: B1; experiment: protein stability index of a GFP-peptide fusion (GPS, HEK-293T) (PSI 1-6); higher = more stable; details: c terminus: native;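 note: lentivirally expressed fusions sorted by FACS into six bins by GFP to DsRed ratio, PSI derived from sequencing read proportions per bin multiplied by bin number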
Assay readout: protein stability index

[[record]]
sequence_variant = "I5V"
assay_readout = "protein stability index"
numeric_readout = 3.37

[[record]]
sequence_variant = "V16N"
assay_readout = "protein stability index"
numeric_readout = 2.46

[[record]]
sequence_variant = "R21I"
assay_readout = "protein stability index"
numeric_readout = 3.16

[[record]]
sequence_variant = "R21H"
assay_readout = "protein stability index"
numeric_readout = 3.9

[[record]]
sequence_variant = "S18R"
assay_readout = "protein stability index"
numeric_readout = 3.29

[[record]]
sequence_variant = "N2E"
assay_readout = "protein stability index"
numeric_readout = 1.69

[[record]]
sequence_variant = "V15F"
assay_readout = "protein stability index"
numeric_readout = 1.96

[[record]]
sequence_variant = "F3R"
assay_readout = "protein stability index"
numeric_readout = 2.87

[[record]]
sequence_variant = "V11L"
assay_readout = "protein stability index"
numeric_readout = 1.34

[[record]]
sequence_variant = "H19M"
assay_readout = "protein stability index"
numeric_readout = 2.39

[[record]]
sequence_variant = "H19L"
assay_readout = "protein stability index"
numeric_readout = 2.08

[[record]]
sequence_variant = "V16G"
assay_readout = "protein stability index"
numeric_readout = 2.82

[[record]]
sequence_variant = "R21P"
assay_readout = "protein stability index"
numeric_readout = 3.5

[[record]]
sequence_variant = "S18M"
assay_readout = "protein stability index"
numeric_readout = 1

[[record]]
sequence_variant = "S18G"
assay_readout = "protein stability index"
numeric_readout = 1.54

[[record]]
sequence_variant = "D12P"
assay_readout = "protein stability index"
numeric_readout = 1.95

[[record]]
sequence_variant = "V15E"
assay_readout = "protein stability index"
numeric_readout = 2.23

[[record]]
sequence_variant = "S17E"
assay_readout = "protein stability index"
numeric_readout = 2.91

[[record]]
sequence_variant = "I23V"
assay_readout = "protein stability index"
numeric_readout = 4.83

[[record]]
sequence_variant = "Q14K"
assay_readout = "protein stability index"
numeric_readout = 2.35

[[record]]
sequence_variant = "S18P"
assay_readout = "protein stability index"
numeric_readout = 3.1

[[record]]
sequence_variant = "S17F"
assay_readout = "protein stability index"
numeric_readout = 2.65

[[record]]
sequence_variant = "E22R"
assay_readout = "protein stability index"
numeric_readout = 2.87

[[record]]
sequence_variant = "R21T"
assay_readout = "protein stability index"
numeric_readout = 4.4

[[record]]
sequence_variant = "G13C"
assay_readout = "protein stability index"
numeric_readout = 1.98

[[record]]
sequence_variant = "V11M"
assay_readout = "protein stability index"
numeric_readout = 1.85

[[record]]
sequence_variant = "E22H"
assay_readout = "protein stability index"
numeric_readout = 4.64

[[record]]
sequence_variant = "G13F"
assay_readout = "protein stability index"
numeric_readout = 1.86

[[record]]
sequence_variant = "H19K"
assay_readout = "protein stability index"
numeric_readout = 2.95

[[record]]
sequence_variant = "H4M"
assay_readout = "protein stability index"
numeric_readout = 1.59

[[record]]
sequence_variant = "E8K"
assay_readout = "protein stability index"
numeric_readout = 2.28

[[record]]
sequence_variant = "S10I"
assay_readout = "protein stability index"
numeric_readout = 1.34

[[record]]
sequence_variant = "S1K"
assay_readout = "protein stability index"
numeric_readout = 1.69

[[record]]
sequence_variant = "K20R"
assay_readout = "protein stability index"
numeric_readout = 3.06

[[record]]
sequence_variant = "F3L"
assay_readout = "protein stability index"
numeric_readout = 1.84

[[record]]
sequence_variant = "V15S"
assay_readout = "protein stability index"
numeric_readout = 3.12

[[record]]
sequence_variant = "S1C"
assay_readout = "protein stability index"
numeric_readout = 1.57

[[record]]
sequence_variant = "H4K"
assay_readout = "protein stability index"
numeric_readout = 1.94

[[record]]
sequence_variant = "R21F"
assay_readout = "protein stability index"
numeric_readout = 4.32

[[record]]
sequence_variant = "N6F"
assay_readout = "protein stability index"
numeric_readout = 2.11

[[record]]
sequence_variant = "Q14T"
assay_readout = "protein stability index"
numeric_readout = 2.12

[[record]]
sequence_variant = "S17Q"
assay_readout = "protein stability index"
numeric_readout = 1.68

[[record]]
sequence_variant = "E22S"
assay_readout = "protein stability index"
numeric_readout = 3.52

[[record]]
sequence_variant = "I5Q"
assay_readout = "protein stability index"
numeric_readout = 3.1

[[record]]
sequence_variant = "S10H"
assay_readout = "protein stability index"
numeric_readout = 1.95

[[record]]
sequence_variant = "S17V"
assay_readout = "protein stability index"
numeric_readout = 2.42

[[record]]
sequence_variant = "N2A"
assay_readout = "protein stability index"
numeric_readout = 1.57

[[record]]
sequence_variant = "K20D"
assay_readout = "protein stability index"
numeric_readout = 3.86

[[record]]
sequence_variant = "V16K"
assay_readout = "protein stability index"
numeric_readout = 2.2

[[record]]
sequence_variant = "S10D"
assay_readout = "protein stability index"
numeric_readout = 2.95

[[record]]
sequence_variant = "S1G"
assay_readout = "protein stability index"
numeric_readout = 1.39

[[record]]
sequence_variant = "S10K"
assay_readout = "protein stability index"
numeric_readout = 1.5

[[record]]
sequence_variant = "N6H"
assay_readout = "protein stability index"
numeric_readout = 2.28

[[record]]
sequence_variant = "V11D"
assay_readout = "protein stability index"
numeric_readout = 2.09

[[record]]
sequence_variant = "Q14M"
assay_readout = "protein stability index"
numeric_readout = 1.32

[[record]]
sequence_variant = "R21W"
assay_readout = "protein stability index"
numeric_readout = 3.38

[[record]]
sequence_variant = "V16C"
assay_readout = "protein stability index"
numeric_readout = 2.25

[[record]]
sequence_variant = "S17L"
assay_readout = "protein stability index"
numeric_readout = 2.06

[[record]]
sequence_variant = "H19A"
assay_readout = "protein stability index"
numeric_readout = 2.75

[[record]]
sequence_variant = "H4E"
assay_readout = "protein stability index"
numeric_readout = 3.18

[[record]]
sequence_variant = "H4N"
assay_readout = "protein stability index"
numeric_readout = 2.09

[[record]]
sequence_variant = "E9R"
assay_readout = "protein stability index"
numeric_readout = 1.89

[[record]]
sequence_variant = "S18A"
assay_readout = "protein stability index"
numeric_readout = 1.37

[[record]]
sequence_variant = "H4Y"
assay_readout = "protein stability index"
numeric_readout = 2.37

[[record]]
sequence_variant = "I5Y"
assay_readout = "protein stability index"
numeric_readout = 1.24

[[record]]
sequence_variant = "E9M"
assay_readout = "protein stability index"
numeric_readout = 3.34

[[record]]
sequence_variant = "V15Q"
assay_readout = "protein stability index"
numeric_readout = 2.78

[[record]]
sequence_variant = "V16Y"
assay_readout = "protein stability index"
numeric_readout = 2

[[record]]
sequence_variant = "K20E"
assay_readout = "protein stability index"
numeric_readout = 1.49

[[record]]
sequence_variant = "Q14H"
assay_readout = "protein stability index"
numeric_readout = 1.6

[[record]]
sequence_variant = "S1R"
assay_readout = "protein stability index"
numeric_readout = 2.66

[[record]]
sequence_variant = "S18C"
assay_readout = "protein stability index"
numeric_readout = 2.21

[[record]]
sequence_variant = "R21K"
assay_readout = "protein stability index"
numeric_readout = 4.88

[[record]]
sequence_variant = "S17H"
assay_readout = "protein stability index"
numeric_readout = 2.17

[[record]]
sequence_variant = "V16E"
assay_readout = "protein stability index"
numeric_readout = 2.85

[[record]]
sequence_variant = "E8L"
assay_readout = "protein stability index"
numeric_readout = 2.02

[[record]]
sequence_variant = "F3K"
assay_readout = "protein stability index"
numeric_readout = 2.7

[[record]]
sequence_variant = "Q14I"
assay_readout = "protein stability index"
numeric_readout = 1.55

[[record]]
sequence_variant = "I5P"
assay_readout = "protein stability index"
numeric_readout = 2.98

[[record]]
sequence_variant = "I23T"
assay_readout = "protein stability index"
numeric_readout = 4.32

[[record]]
sequence_variant = "N6D"
assay_readout = "protein stability index"
numeric_readout = 1.54

[[record]]
sequence_variant = "V7R"
assay_readout = "protein stability index"
numeric_readout = 2.78

[[record]]
sequence_variant = "V11Y"
assay_readout = "protein stability index"
numeric_readout = 1.44

[[record]]
sequence_variant = "I5M"
assay_readout = "protein stability index"
numeric_readout = 2.59

